From: ChEMBL document CHEMBL1201862

test system: COLO 205; assay: NCI tumour cell line growth inhibition, 48 h
Activity calls are given as the source filed them. Cut-off read from the data, not from the text of the source: active = GI50 up to about 1.1 µM and inactive = higher.
Outcomes you can answer with include only these: t (active), f (inactive)

Reference set, count: 8
COC(=O)[C@H](Cc1c[nH]c2ccccc12)NC(=O)OCC1OC(n2cc(C)c(=O)[nH]c2=O)CC1N=[N+]=[N-] (stereo partly drawn); f
O=c1c(O)c(-c2ccccc2)oc2c(CP(=O)(O)O)cccc12; f
COc1ccc2c(c1)CCN1C3=C(CCC3)C(=O)C[C@@H]21; f
N#Cc1nc(Nc2cccc3ccccc23)sc1N; f
CCCCCCCCC/C=C1/CC(CO)(COC(=O)c2ccccc2)OC1=O (stereo not drawn); f
CC1=NN(c2nc(N)nc(CSc3cc(Cl)c(C)cc3S(N)(=O)=O)n2)C(C)(C)C1; f
CC(Cc1ccccc1)N(C)Cc1nc(C2CCC([N+](=O)[O-])O2)no1 (stereo not drawn); f
COc1cc(Nc2nc3cc(C(F)(F)F)ccc3nc2-c2ccccc2)cc(OC)c1OC; f

Any idea what this test logged for CC(NC(=O)C(C)C(=O)Nc1ccc(C(F)(F)F)cc1)C(N)=O (stereo not drawn) ?
f

Any idea what this test logged for COc1nc2c(c(=O)n1C)N=C(c1ccc(Cl)cc1)CC(c1ccccc1)N2 (stereo not drawn) ?
f

Any idea what this test logged for "O=C(NC1CCCCC1)N1CCNC1=S" ?
f

Any idea what this test logged for "O=C1Cc2c([nH]c3ccc(Cl)cc23)-c2ccccc2N1" ?
f

Any idea what this test logged for "OCCCCCNc1ccnc2cc(Cl)ccc12" ?
f

====

test system: DU-145; experiment: NCI tumour cell line growth inhibition, 48 h
Active and inactive are the calls of the source. No stated cut-off is given here; in the data, active = GI50 up to about 1.1 µM and inactive = higher.
Outcomes you can answer with include only these: yes (active), no (inactive)

COC1(OC)c2no[n+]([O-])c2C(OC)(OC)c2c1no[n+]2[O-]; no

Any idea what this test logged for "O=C(Nc1ccc2ccccc2c1)Nn1cnnc1" ?
no

Any idea what this test logged for "[N-]=[N+]=Nc1c(Cc2ccccc2)c(Cl)nc2ccccc12" ?
no

Any idea what this test logged for "CCCN(CCC)C(=S)Sc1nc(C)nc(N2CCN(c3nc(C)nc(SC(=S)N(CCC)CCC)c3[N+](=O)[O-])CC2)c1[N+](=O)[O-]" ?
no

Any idea what this test logged for "NC(C(F)(F)F)(C(F)(F)F)P(=O)(c1ccccc1)c1ccccc1" ?
no

Any idea what this test logged for "COC(=O)/C=C\C(C#N)(C#N)/N=C/c1ccccc1" ?
no

Any idea what this test logged for "COc1ccc(OC)c(C(=O)/C=C/c2cc(O)c(O)cc2F)c1" ?
yes

Any idea what this test logged for "Cc1ccc2c(c1)-c1nc(N)c(C#N)c(-c3ccccc3)c1CCS2(=O)=O" ?
no

Any idea what this test logged for "COc1ccc(-n2nnc3c(C#N)c(-c4ccccc4)c(C)n3c2=O)cc1" ?
no

Any idea what this test logged for "CCN1CCN=c2c3cc(OC)ccc3n3cnc4ccc1c2c43" ?
yes

====

Let's look at some molecules and their measured GI50.
tested on: DLD-1; assay: NCI tumour cell line growth inhibition, 48 h
Activity calls are given as the source filed them. Rule as the data show it: active = GI50 up to about 1.1 µM and inactive = higher.

Some molecules with recorded GI50:
CCCN(CCC)C(=O)Cc1c2n(c3ccccc13)CCCc1ccccc1-2; 13.6 µM (inactive)
CCN(CC)CCOc1ccc(/C=C(\C#N)c2ccc(OCCN(CC)CC)cc2)cc1; 19.5 µM (inactive)
N#CC(C(=O)CCC(=O)Nc1ccc(Cl)c(Cl)c1)c1ccccc1 (configuration not stated); > 100 µM (inactive)
CC(=O)OCCOCNC(=S)N/N=C/c1ccc(Br)s1; > 81.8 µM (inactive)
O=C(NCCCCCCNC(=O)n1cc(F)c(=O)[nH]c1=O)NCCCOCCOCCCNC(=O)C(O)C(O)C(O)C(O)CO (configuration not stated); 2.44 µM (inactive)

Return value of GI50 for input "Cn1c(=O)[nH]c2c(c1=O)C(=O)CN2" , no commentary.
> 100 µM (inactive)

Return value of GI50 for input "CS(=O)(=O)c1cc(=O)c2ccccc2s1" , no commentary.
1.91 µM (inactive)

Return value of GI50 for input "O=C1N[C@@H]([C@H]2CC[C@H](Cl)CN2)C(=O)N[C@H]1[C@H]1CC[C@H](Cl)CN1" , no commentary.
4.92 µM (inactive)

Return value of GI50 for input "CC1=C2C(=CO[C@H](C)[C@H]2C)C(O)=C(C(=O)O)C1=O" , no commentary.
18.2 µM (inactive)

Return value of GI50 for input "CC1=C(C(=O)CC(=O)C(=O)Nc2ccccc2C(F)(F)F)Sc2ccccc2N1" , no commentary.
76 µM (inactive)

Return value of GI50 for input "CCOC(=O)CNC(=O)c1nc[nH]c1/N=N/N(C)C" , no commentary.
> 100 µM (inactive)

Return value of GI50 for input "CC12C/C(=C\c3ccccc3)C(=O)C3C1CCCC32" , no commentary.
79.3 µM (inactive)

Return value of GI50 for input "N#Cc1nc(Nc2cccc3ccccc23)sc1N" , no commentary.
48.4 µM (inactive)

Return value of GI50 for input "Cc1ccccc1/N=N/c1c(-c2ccccc2)nn(C(=O)CC(=O)Nc2cccc(Cl)c2)c1-c1ccccc1" , no commentary.
20.4 µM (inactive)

Return value of GI50 for input CNC(=O)NC(CCCCNC(=O)OCc1ccccc1)C(=O)OCc1ccccc1 (configuration not stated) , no commentary.
> 100 µM (inactive)

Return value of GI50 for input NCCN1C(=O)C2C3c4ccccc4C(c4ccccc43)C2C1=O (configuration not stated) , no commentary.
> 100 µM (inactive)
